targetOfAssay: CDK9/CycT1 (Homo sapiens, UniProt P50750)
Construct: Recombinant full-length His-tagged human CDK9 and CycT1; His; purchased Life Technologies PV4131; host or cells: insect cells
Sequence (P50750 whole entry): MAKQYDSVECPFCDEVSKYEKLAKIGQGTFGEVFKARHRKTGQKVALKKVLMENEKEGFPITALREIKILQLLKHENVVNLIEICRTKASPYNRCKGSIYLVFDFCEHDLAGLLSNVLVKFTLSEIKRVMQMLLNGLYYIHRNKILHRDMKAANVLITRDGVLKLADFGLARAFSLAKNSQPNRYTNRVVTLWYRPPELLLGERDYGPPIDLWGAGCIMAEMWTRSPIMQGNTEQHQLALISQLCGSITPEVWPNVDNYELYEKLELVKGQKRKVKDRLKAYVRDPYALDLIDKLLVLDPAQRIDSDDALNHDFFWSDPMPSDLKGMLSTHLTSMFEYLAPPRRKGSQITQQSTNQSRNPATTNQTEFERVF
Sequence (O60563 whole entry partner): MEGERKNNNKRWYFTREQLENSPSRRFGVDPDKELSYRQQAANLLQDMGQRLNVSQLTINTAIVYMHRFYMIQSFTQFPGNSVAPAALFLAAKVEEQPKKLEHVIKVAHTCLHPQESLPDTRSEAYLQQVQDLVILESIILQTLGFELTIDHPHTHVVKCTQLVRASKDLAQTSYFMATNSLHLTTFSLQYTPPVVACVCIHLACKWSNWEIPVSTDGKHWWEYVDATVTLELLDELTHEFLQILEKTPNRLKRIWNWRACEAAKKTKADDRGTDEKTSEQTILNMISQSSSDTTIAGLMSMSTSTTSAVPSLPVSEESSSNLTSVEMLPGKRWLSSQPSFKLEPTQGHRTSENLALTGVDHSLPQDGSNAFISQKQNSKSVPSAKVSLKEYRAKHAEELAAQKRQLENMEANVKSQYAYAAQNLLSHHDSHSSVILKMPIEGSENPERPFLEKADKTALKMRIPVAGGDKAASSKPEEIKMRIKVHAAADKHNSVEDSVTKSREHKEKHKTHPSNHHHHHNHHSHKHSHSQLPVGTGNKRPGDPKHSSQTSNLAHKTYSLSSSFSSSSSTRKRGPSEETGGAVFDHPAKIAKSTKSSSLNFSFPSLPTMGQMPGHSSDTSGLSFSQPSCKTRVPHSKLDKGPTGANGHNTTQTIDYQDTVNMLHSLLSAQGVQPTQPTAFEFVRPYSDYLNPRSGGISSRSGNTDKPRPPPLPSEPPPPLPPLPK
testName: CDK9/CycT1 high ATP kinase assay (TR-FRET)
Format: biochemical
setupConditions: 2 mM ATP, Method 1b
Description: 1b. CDK9/CycT1 High ATP Kinase Assay CDK9/CycT1-inhibitory activity of compounds of the present invention at a high ATP concentration after preincubation of enzyme and test compounds was quantified employing the CDK9/CycT1 TR-FRET assay as described in the following paragraphs. Recombinant full-length His-tagged human CDK9 and CycT1, expressed in insect cells and purified by Ni-NTA affinity chromatography, were purchased from Life Technologies (Cat. No PV4131). […]
Recorded pIC50 by entry
Keep in mind that pIC50 stands for -log10 of concentration in molar terms.

// solved cases for pIC50 follow
INSERT INTO measurements (compound, measurementtype, measurednumber) VALUES
  ('CSCc1cc2cc(c1)OC(C)CCCNc1cc(ccc1F)-c1nc(ncc1F)N2 (racemic) [Example 7]', 'pIC50', 8.41),
  ('CC(C)(C)OC(=O)N=S(C)(=O)Cc1cc2cc(c1)OCCCCCNc1cc(ccc1F)-c1nc(ncc1F)N2 (racemic) [Example 4]', 'pIC50', 8.85);

Pending compound:
Prompt line: Quick one: give measured pIC50 for CS(=N)(=O)Cc1cc2cc(c1)OCCCCNc1cc(ccc1F)-c1nc(ncc1F)N2 (single isomer, unassigned) [Example 10]
Response line: 8.80

Where do the numbers come from? From patent US11691986B2.
